- assay-text: amyloid nucleation score (Sup35N fusion, yeast selection) (log enrichment); library NNK2; higher = more nucleation; inactive = no reads after selection;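 also: zero at mode of non-aggregating sequences after 7 days selection at 30°C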
Quick rule: amyloid nucleation score of at least 0.1 means MET, below that means NOT MET.

[
  {
    "sequence-text": "TGCTFCKSMCLYGETSRKDN",
    "assigned-class": "MET"
  },
  {
    "sequence-text": "GCMLSRMNTGLSRLGLFFDS",
    "assigned-class": "NOT MET"
  },
  {
    "sequence-text": "FKSVSRSVALLRYPCLPKFS",
    "assigned-class": "NOT MET"
  },
  {
    "sequence-text": "RSLHFFTSMHMCGRCLNRLF",
    "assigned-class": "NOT MET"
  },
  {
    "sequence-text": "SGLVVMRLLFLRGY",
    "assigned-class": "NOT MET"
  },
  {
    "sequence-text": "NSMPATIYFMRSPDIGFSV",
    "assigned-class": "MET"
  },
  {
    "sequence-text": "LSLLEGKVWLRWY",
    "assigned-class": "MET"
  },
  {
    "sequence-text": "IQVLVLPISYISIRGQKWRN",
    "assigned-class": "MET"
  },
  {
    "sequence-text": "VRNFCFDYSVWYENGLTWKR",
    "assigned-class": "MET"
  }
]

----------
- assay-text: amyloid nucleation score (Sup35N fusion, yeast selection) (log enrichment); library NNK1; higher = more nucleation; inactive = no reads after selection
Quick rule: amyloid nucleation score of at least 0.5 means 1 (yes), below that means 0 (no).

[
  {
    "substance": "YILVYSSVTRRYHKSRSYVG",
    "assigned-class": "0 (no)"
  },
  {
    "substance": "ITVLSS",
    "assigned-class": "1 (yes)"
  },
  {
    "substance": "QMTVGQYSCL",
    "assigned-class": "0 (no)"
  },
  {
    "substance": "NDRVNRNTFSYPWQVAFFRQ",
    "assigned-class": "1 (yes)"
  },
  {
    "substance": "SGKVVNPCMNDSDLVLNRIW",
    "assigned-class": "0 (no)"
  },
  {
    "substance": "SVWDGFSLRYPSLVYLRCGS",
    "assigned-class": "0 (no)"
  },
  {
    "substance": "IVGSVVRGMGLVIIRSTCFW",
    "assigned-class": "1 (yes)"
  },
  {
    "substance": "AWRSFIGYRMRVWIGYRGCY",
    "assigned-class": "0 (no)"
  },
  {
    "substance": "TYIPDIYG",
    "assigned-class": "1 (yes)"
  },
  {
    "substance": "FFDSRFLFDSRTGSMYA",
    "assigned-class": "0 (no)"
  },
  {
    "substance": "RYFNGYITGNLNSASNARSS",
    "assigned-class": "1 (yes)"
  },
  {
    "substance": "CFEFDPFMNMVKSCWCCQVA",
    "assigned-class": "0 (no)"
  },
  {
    "substance": "CRCAPYSNGKTGIHARLFNT",
    "assigned-class": "1 (yes)"
  },
  {
    "substance": "LIGFSRVSSGFSPFTPAHCR",
    "assigned-class": "1 (yes)"
  },
  {
    "substance": "CFTYSARH",
    "assigned-class": "1 (yes)"
  },
  {
    "substance": "GYELSMKATIRVVCRAIYFC",
    "assigned-class": "1 (yes)"
  },
  {
    "substance": "PKFSLMQLTPGLGTQ",
    "assigned-class": "1 (yes)"
  },
  {
    "substance": "TTFVSASSMRRYRCLSLGAC",
    "assigned-class": "1 (yes)"
  },
  {
    "substance": "AWIPFVNTKTEWRVMDVNFD",
    "assigned-class": "0 (no)"
  },
  {
    "substance": "FNISFCIASSYVNTIGKQQG",
    "assigned-class": "1 (yes)"
  },
  {
    "substance": "VVSYISPATLRTLKLEKGLS",
    "assigned-class": "0 (no)"
  },
  {
    "substance": "YVTIIDKIYIWLDVVNRDLP",
    "assigned-class": "1 (yes)"
  }
]
